# system.tested: T1, human NPR1 on CHO-K1 cells (human, UniProt P16066 33-1061)
# T1 sequence: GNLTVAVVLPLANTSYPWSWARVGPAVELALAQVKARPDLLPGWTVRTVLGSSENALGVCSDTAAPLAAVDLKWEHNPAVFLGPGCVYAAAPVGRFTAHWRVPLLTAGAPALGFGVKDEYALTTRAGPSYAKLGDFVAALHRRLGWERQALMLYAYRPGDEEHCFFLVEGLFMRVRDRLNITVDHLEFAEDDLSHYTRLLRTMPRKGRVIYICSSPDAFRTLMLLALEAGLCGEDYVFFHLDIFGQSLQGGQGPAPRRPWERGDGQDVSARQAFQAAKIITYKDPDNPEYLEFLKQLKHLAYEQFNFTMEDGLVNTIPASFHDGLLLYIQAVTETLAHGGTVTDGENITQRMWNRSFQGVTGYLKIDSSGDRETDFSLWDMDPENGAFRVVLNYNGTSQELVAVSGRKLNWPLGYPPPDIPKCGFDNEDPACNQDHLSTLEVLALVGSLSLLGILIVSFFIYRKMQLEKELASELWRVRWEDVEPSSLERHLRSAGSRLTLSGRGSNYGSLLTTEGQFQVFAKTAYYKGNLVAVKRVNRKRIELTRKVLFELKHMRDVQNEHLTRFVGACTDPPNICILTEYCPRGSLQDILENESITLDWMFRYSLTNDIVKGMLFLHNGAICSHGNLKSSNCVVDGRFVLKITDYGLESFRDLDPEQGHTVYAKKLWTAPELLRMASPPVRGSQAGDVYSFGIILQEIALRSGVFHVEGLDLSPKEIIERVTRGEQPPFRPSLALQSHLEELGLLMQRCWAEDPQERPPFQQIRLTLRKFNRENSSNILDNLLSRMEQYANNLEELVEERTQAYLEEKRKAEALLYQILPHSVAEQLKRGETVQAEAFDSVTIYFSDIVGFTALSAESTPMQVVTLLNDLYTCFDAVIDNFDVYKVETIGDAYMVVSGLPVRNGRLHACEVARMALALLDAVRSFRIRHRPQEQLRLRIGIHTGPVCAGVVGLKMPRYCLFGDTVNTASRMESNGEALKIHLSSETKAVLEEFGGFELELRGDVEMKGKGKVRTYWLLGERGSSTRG
# protocol.details: cell-based or functional assay
A collection of binders and their measured cGMP conc [nM] at 1 µM FabCys, +0.075 nM ANP
State the answer as a number, implicitly in nM.

binder	unit.label	quantitative.readout
YY07 (FabCys format) (Fab, V domains shown, Monovalent FabCys) VH: EVQLVQSGAEVKKPGESLKISCKGSGYSFTSYWISWVRQMPGKGLEWMGIIYPGTSYTRYSPSFQGQVTISADKSISTAYLQWSSLKASDTAMYYCARGSLPGLLGFDHWGQGTLVTVSS VL: QSVLTQPPSVSGAPGQRVTISCTGSSSNIGAGYDVHWYQQLPGTAPKLLIYGNSNRPNGVPDRFSGSKSGTSASLAITGLQAEDEADYYCQSYDSPTSSSVFGGGTKLTVL	nM	88
YY01 (FabCys format) (Fab, V domains shown, Monovalent FabCys) VH: EVQLVESGGGLVQPGGSLRLSCAASGFTFSSYWISWVRQAPGKGLEWVANIKQSGSETYYVESVKGRFTISRDNAKNSLYLQMNSLRAEDTAVYYCARSLRRRSTEHAGFDVWGQGTLVTVSS VL: DIQMTQSPSSLSASVGDRVTITCRASQGISNYLAWYQQKPGKVPKLLIYAASTLQSGVPSRFSGSGSGTDFTLTISSLQPEDVATYYCQQADKFPYTFGQGTKVEIK	nM	46
YY04 (FabCys format) (Fab, V domains shown, Monovalent FabCys) VH: EVQLVESGGGLVKPGGSLRLSCAASGFTFSNYWISWVRQAPGKGLEWVGRIKSKTYGGTTDYAEPVKGRFTISRDDSKNTLYLQMNSLKTEDTAVYYCAREKYSIRARGHGDYGFDVWGQGTLVTVSS VL: DIQMTQSPSSLSASVGDRVTITCRASQGISNYLAWYQQKPGKVPKLLIYAASTLQSGVPSRFSGSGSGTDFTLTISSLQPEDVATYYCQQGYHAPFTFGQGTKVEIK	nM	67

Value of cGMP conc [nM] at 1 µM FabCys, +0.075 nM ANP reported for the binder YY05 (FabCys format) (Fab, V domains shown, Monovalent FabCys) VH: EVQLVQSGAEVKKPGESLKISCKGSGYSFTSYWISWVRQMPGKGLEWMGIIYPGTSYTRYSPSFQGQVTISADKSISTAYLQWSSLKASDTAMYYCARGAVAGQLGFDHWGQGTLVTVSS VL: QSVLTQPPSVSGAPGQRVTISCTGSSSNIGAGYDVHWYQQLPGTAPKLLIYGNSNRPSGVPDRFSGSKSGTSASLAITGLQAEDEADYYCQSYYTSSHGPVFGGGTKLTVL is 227
